Listing: Ratio Ki of selected compounds
Species on record: Homo sapiens
test-summary: Selectivity ratio of Ki for human recombinant carbonic anhydrase 2 to Ki for human recombinant carbonic anhydrase 12

The following compounds have reported results that may help.
{"columns": ["cpd-smiles", "Ratio Ki"],
 "data": [
  ["Cc1ccc(-c2cnc(C3CCC3)o2)cc1S(N)(=O)=O", "> 100000"],
  ["COc1ccc(-c2cnc(C3CCC3)o2)cc1S(N)(=O)=O", "> 100000"],
  ["COc1ccc(-c2cnc(C(=O)N3CCOCC3)o2)cc1S(N)(=O)=O", "> 100000"],
  ["COc1ccc(-c2cnc(C(=O)N3CCCC3)o2)cc1S(N)(=O)=O", "> 100000"],
  ["Cc1ccc(-c2cnc(C3CC3)o2)cc1S(N)(=O)=O", "> 100000"],
  ["Cc1ccc(-c2cnc(C(=O)N3CCCC3)o2)cc1S(N)(=O)=O", "> 100000"],
  ["Cc1ncc(-c2ccc(C)c(S(N)(=O)=O)c2)o1", "> 100000"],
  ["Cc1ccc(-c2cnc(C(=O)N3CCOCC3)o2)cc1S(N)(=O)=O", "> 100000"]
]}

So, `COc1ccc(-c2cnc(C)o2)cc1S(N)(=O)=O` ? Its Ratio Ki was > 100000

`COc1ccc(-c2cnc(C3CC3)o2)cc1S(N)(=O)=O` yielded Ratio Ki of > 100000

----------
// pKi lookup, one value per entry
tested-system: Carbonic anhydrase 9 (Homo sapiens, UniProt Q16790)
test-summary: Inhibition of human recombinant carbonic anhydrase 9 preincubated for 15 mins by stopped flow CO2 hydration method
The quantity pKi is defined as the negative base-10 logarithm of the molar concentration.

{"columns": ["cpd-smiles", "tested-system", "pKi"],
 "data": [
  ["Cc1ncc(-c2ccc(S(N)(=O)=O)s2)o1", "Carbonic anhydrase 9 (Homo sapiens, UniProt Q16790)", 7.98],
  ["COc1ccc(-c2cnc(C)o2)cc1S(N)(=O)=O", "Carbonic anhydrase 9 (Homo sapiens, UniProt Q16790)", 6.56],
  ["Cc1ccc(-c2cnc(C3CCC3)o2)cc1S(N)(=O)=O", "Carbonic anhydrase 9 (Homo sapiens, UniProt Q16790)", 6.55],
  ["Cc1ccc(-c2cnc(C(=O)N3CCOCC3)o2)cc1S(N)(=O)=O", "Carbonic anhydrase 9 (Homo sapiens, UniProt Q16790)", 8.43],
  ["Cc1ccc(-c2cnc(C(=O)N3CCCC3)o2)cc1S(N)(=O)=O", "Carbonic anhydrase 9 (Homo sapiens, UniProt Q16790)", 7.37]
]}

Form: compound = `NS(=O)(=O)c1cc(-c2cnc(C(=O)N3CCCC3)o2)cs1` ; pKi = 7.82

Reported pKi for `NS(=O)(=O)c1ccc(-c2cnc(C(=O)N3CCCC3)o2)s1` was 7.73

response.value for `NS(=O)(=O)c1ccc(-c2cnc(C(=O)N3CCOCC3)o2)s1` (field: pKi) = 7.44

Record `Cc1ncc(-c2csc(S(N)(=O)=O)c2)o1` . Reported pKi: 7.58

Sure, the documented pKi for `NS(=O)(=O)c1ccc(-c2cnc(C(=O)N3CCCC3)o2)cc1` is 8.77

pKi reading for `COc1ccc(-c2cnc(C3CC3)o2)cc1S(N)(=O)=O` : 6.36

Recorded pKi (compound `NS(=O)(=O)c1ccc(-c2cnc(C3CC3)o2)s1` ): 6.91

----------
tested-system: Carbonic anhydrase 1 (Homo sapiens, UniProt P00915)
Sequence (P00915 whole entry): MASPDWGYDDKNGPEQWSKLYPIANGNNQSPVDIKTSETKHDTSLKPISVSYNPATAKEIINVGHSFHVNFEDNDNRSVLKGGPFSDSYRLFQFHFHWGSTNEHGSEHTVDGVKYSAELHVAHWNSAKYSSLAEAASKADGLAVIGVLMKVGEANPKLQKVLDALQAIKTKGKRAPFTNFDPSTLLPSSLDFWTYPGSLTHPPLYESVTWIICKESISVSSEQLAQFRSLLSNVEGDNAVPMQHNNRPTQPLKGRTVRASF
test-summary: Inhibition of human recombinant carbonic anhydrase 1 preincubated for 15 mins by stopped flow CO2 hydration method
pKi: −log10 of the molar value.
Hi, to clarify the labels: Yes covers pKi from 7 upward, No covers anything below 7.

For orientation, consider the following solved cases.
{"columns": ["cpd-smiles", "class-assignment"],
 "data": [
  ["Cc1ncc(-c2ccc(C)c(S(N)(=O)=O)c2)o1", "Yes"],
  ["Cc1ccc(-c2cnc(C3CC3)o2)cc1S(N)(=O)=O", "No"],
  ["COc1ccc(-c2cnc(C(=O)N3CCOCC3)o2)cc1S(N)(=O)=O", "No"]
]}

Q. Identify whether the reported pKi of the following molecule is 7 or greater: `Cc1ccc(-c2cnc(C(=O)N3CCOCC3)o2)cc1S(N)(=O)=O`
A. Yes

Q. Has `NS(=O)(=O)c1cc(-c2cnc(C3CC3)o2)cs1` a recorded pKi greater than or equal to 7?
A. Yes

----------
Listed here are molecules together with their documented Ki.
tested-system: Carbonic anhydrase 2 (Homo sapiens, UniProt P00918)
test-summary: Inhibition of human recombinant carbonic anhydrase 2 preincubated for 15 mins by stopped flow CO2 hydration method
Lab book: enter the figure in nM, no units written.

{"columns": ["cpd-smiles", "tested-system", "reported-value"],
 "data": [
  ["COc1ccc(-c2cnc(C)o2)cc1S(N)(=O)=O", "Carbonic anhydrase 2 (Homo sapiens, UniProt P00918)", 4420]
]}

Kindly note the recorded Ki for `COc1ccc(-c2cnc(C(=O)N3CCCC3)o2)cc1S(N)(=O)=O` , which is 0.01

The reported value for `Cc1ncc(-c2ccc(C)c(S(N)(=O)=O)c2)o1` in terms of Ki is 7.1

The measured Ki associated with `NS(=O)(=O)c1cc(-c2cnc(C(=O)N3CCCC3)o2)cs1` reads 0.02

Memo: `Cc1ccc(-c2cnc(C3CC3)o2)cc1S(N)(=O)=O` , reported Ki: 63.9

----------
Listed here: items and their measured pKi.
tested-system: Carbonic anhydrase 1 (Homo sapiens, UniProt P00915)
test-summary: Inhibition of human recombinant carbonic anhydrase 1 preincubated for 15 mins by stopped flow CO2 hydration method
The meaning of pKi here: minus log10 of the concentration in molar units.

Here's what some known entries look like.
{"columns": ["cpd-smiles", "pKi"],
 "data": [
  ["NS(=O)(=O)c1ccc(-c2cnc(C3CCC3)o2)cc1", 7.26],
  ["NS(=O)(=O)c1cc(-c2cnc(C(=O)N3CCOCC3)o2)cs1", 10.05],
  ["NS(=O)(=O)c1ccc(-c2cnc(C3CC3)o2)s1", 6.89],
  ["Cc1ncc(-c2csc(S(N)(=O)=O)c2)o1", 10.30]
]}

pKi reported for this compound `NS(=O)(=O)c1ccc(-c2cnc(C(=O)N3CCCC3)o2)s1` : 7.38

Quick note, pKi for `NS(=O)(=O)c1ccc(-c2cnc(C(=O)N3CCOCC3)o2)cc1` landed at 11.00

Lab note: `NS(=O)(=O)c1ccc(-c2cnc(C3CC3)o2)cc1` gave pKi of 8.32

----------
Reported pKi by item:
tested-system: Carbonic anhydrase 9 (Homo sapiens)
test-summary: Inhibition of human recombinant carbonic anhydrase 9 preincubated for 15 mins by stopped flow CO2 hydration method
In simple prose, pKi is minus the logarithm base ten of a concentration in moles per litre.

Solved entries:
{"columns": ["cpd-smiles", "pKi"],
 "data": [
  ["Cc1ncc(-c2ccc(C)c(S(N)(=O)=O)c2)o1", 6.56],
  ["NS(=O)(=O)c1ccc(-c2cnc(C(=O)N3CCOCC3)o2)cc1", 8.80],
  ["COc1ccc(-c2cnc(C(=O)N3CCOCC3)o2)cc1S(N)(=O)=O", 8.35],
  ["NS(=O)(=O)c1ccc(-c2cnc(C3CC3)o2)cc1", 8.49],
  ["COc1ccc(-c2cnc(C(=O)N3CCCC3)o2)cc1S(N)(=O)=O", 8.39]
]}

Entry under test: `Cc1ncc(-c2ccc(S(N)(=O)=O)cc2)o1` . Its pKi was 7.64

Kindly note the recorded pKi for `NS(=O)(=O)c1cc(-c2cnc(C3CCC3)o2)cs1` , which is 7.59

----------
tested-system: Carbonic anhydrase 12 (Homo sapiens)
Sequence (O43570 whole entry): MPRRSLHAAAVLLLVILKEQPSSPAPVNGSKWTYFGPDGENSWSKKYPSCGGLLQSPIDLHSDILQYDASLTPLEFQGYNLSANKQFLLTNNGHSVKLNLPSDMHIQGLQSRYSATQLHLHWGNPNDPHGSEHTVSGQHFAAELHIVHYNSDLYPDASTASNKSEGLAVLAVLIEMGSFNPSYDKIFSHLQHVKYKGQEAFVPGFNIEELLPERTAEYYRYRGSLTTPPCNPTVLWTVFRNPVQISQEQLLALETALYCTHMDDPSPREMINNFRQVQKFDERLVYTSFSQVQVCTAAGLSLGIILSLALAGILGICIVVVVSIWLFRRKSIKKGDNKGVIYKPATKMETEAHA
test-summary: Inhibition of human recombinant carbonic anhydrase 12 preincubated for 15 mins by stopped flow CO2 hydration method
observable: log10 of Ki (log10 of the value in nM)
Please interpret these as log10 of Ki where Ki is in nM.

Sample records with log10 of Ki:
{"columns": ["cpd-smiles", "log10 of Ki"],
 "data": [
  ["Cc1ccc(-c2cnc(C3CC3)o2)cc1S(N)(=O)=O", 2.58],
  ["Cc1ccc(-c2cnc(C(=O)N3CCOCC3)o2)cc1S(N)(=O)=O", 2.75],
  ["NS(=O)(=O)c1ccc(-c2cnc(C(=O)N3CCCC3)o2)s1", 0.83],
  ["Cc1ccc(-c2cnc(C3CCC3)o2)cc1S(N)(=O)=O", 3.14],
  ["COc1ccc(-c2cnc(C(=O)N3CCCC3)o2)cc1S(N)(=O)=O", 3.93]
]}

// log10 of Ki value for `NS(=O)(=O)c1ccc(-c2cnc(C3CC3)o2)s1` : 0.96

# log10 of Ki of `COc1ccc(-c2cnc(C)o2)cc1S(N)(=O)=O` = 3.55

The value of log10 of Ki measured for the compound `NS(=O)(=O)c1cc(-c2cnc(C3CCC3)o2)cs1` turned out to be 0.82

So, `Cc1ncc(-c2ccc(S(N)(=O)=O)s2)o1` ? Its log10 of Ki was 0.97

For reference, reported log10 of Ki for `NS(=O)(=O)c1ccc(-c2cnc(C3CC3)o2)cc1` stands at 0.79

Record summary for `NS(=O)(=O)c1cc(-c2cnc(C(=O)N3CCOCC3)o2)cs1` : reported log10 of Ki = 0.96

Form field log10 of Ki, entry `NS(=O)(=O)c1cc(-c2cnc(C3CC3)o2)cs1` : 0.94

Record summary for `NS(=O)(=O)c1ccc(-c2cnc(C3CCC3)o2)cc1` : reported log10 of Ki = 0.94

Measured log10 of Ki of `Cc1ncc(-c2ccc(C)c(S(N)(=O)=O)c2)o1` : 2.39

The reported log10 of Ki of the compound `NS(=O)(=O)c1ccc(-c2cnc(C(=O)N3CCOCC3)o2)s1` was 1.48

The compound identified as `COc1ccc(-c2cnc(C3CCC3)o2)cc1S(N)(=O)=O` registered its log10 of Ki at 1.80

// log10 of Ki value for `Cc1ncc(-c2ccc(S(N)(=O)=O)cc2)o1` : 0.93

Note to self: log10 of Ki recorded for `Cc1ccc(-c2cnc(C(=O)N3CCCC3)o2)cc1S(N)(=O)=O` was 3.45

What the record says about `NS(=O)(=O)c1ccc(-c2cnc(C(=O)N3CCCC3)o2)cc1` : log10 of Ki is 1.63

Hello, the source for this data is ChEMBL document CHEMBL3608251, in case you need it.
